Test system: Trypanosoma brucei rhodesiense
protocol.details: Antitrypanosomal activity against Trypanosoma brucei rhodesiense STIB900
Assay type: functional, organism-based
measured.parameter: log10(IC50) (log10 of the value in nM)
Heads up, the numbers here are log10 of IC50 in nM units.

Task item: Can you look up the measured log10(IC50) of N=C(N)c1ccc(-c2ccc(-c3ccc(C(=N)N)cc3)s2)cc1 for me?
Reply: 0.48

Task item: What about Cl.Cl.N=C(N)c1ccc(-c2cnc(-c3ccc(C(=N)N)cn3)s2)cc1 ?
Reply: 1.20

Task item: What about Cl.Cl.N=C(N)c1ccc(-c2cnc(-c3ccc(C(=N)N)cc3)s2)cc1 ?
Reply: 0.60

Task item: What about Cl.Cl.N=C(N)c1ccc(-c2cnc(-c3ccc(C(=N)N)cn3)s2)nc1 ?
Reply: 2.25

Task item: What about Cl.Cl.N=C(N)c1ccc(-c2ncc(-c3ccc(C(=N)N)nc3)s2)nc1 ?
Reply: 1.58

Task item: What about Cl.Cl.N=C(N)c1ccc(-c2cnc(-c3ccc(C(=N)N)nc3)s2)cc1 ?
Reply: 0.60

Task item: What about Cl.Cl.N=C(N)c1ccc(-c2cnc(-c3ccc(C(=N)N)nc3)s2)cn1 ?
Reply: 0.78

Task item: What about Cl.Cl.N=C(N)c1ccc(-c2ncc(-c3ccc(C(=N)N)nc3)s2)cc1 ?
Reply: 0.78

* * *

System: L6
protocol.details: Cytotoxicity against rat L6 cells
Format: cell-based
Field: IC50. Provide a value for each of the compounds that follow.
Please state the figure in µM; there is no need to write the unit.

Task item: Can you look up the measured IC50 of Cl.Cl.N=C(N)c1ccc(-c2cnc(-c3ccc(C(=N)N)nc3)s2)cc1 for me?
Reply: 1.8

Task item: What about Cl.Cl.N=C(N)c1ccc(-c2ncc(-c3ccc(C(=N)N)nc3)s2)cc1 ?
Reply: 40.2

Task item: What about N=C(N)c1ccc(-c2ccc(-c3ccc(C(=N)N)cc3)o2)cc1 [FURAMIDINE] ?
Reply: 6.5

Task item: What about Cl.Cl.N=C(N)c1ccc(-c2cnc(-c3ccc(C(=N)N)nc3)s2)cn1 ?
Reply: 1.4

Task item: What about Cl.Cl.N=C(N)c1ccc(-c2ncc(-c3ccc(C(=N)N)nc3)s2)nc1 ?
Reply: 37.4

Task item: What about Cl.Cl.N=C(N)c1ccc(-c2cnc(-c3ccc(C(=N)N)cn3)s2)cc1 ?
Reply: 102

* * *

Test system: Trypanosoma brucei rhodesiense
protocol.details: Antitrypanosomal activity against Trypanosoma brucei rhodesiense STIB900 in infected mouse model assessed as host survival time at 25 mg/kg, po for 4 days
Assay type: functional
Field: Survival. Provide a value for each of the molecules that follow.

Task item: Short answer please: Survival, Trypanosoma brucei rhodesiense, entry CO/N=C(/N)c1ccc(-c2cnc(-c3ccc(/C(N)=N\OC)cc3)s2)cc1.Cl.Cl
Reply: 41 days

Task item: What about Cl.Cl.N/C(=N\O)c1ccc(-c2cnc(-c3ccc(/C(N)=N\O)cn3)s2)cc1 ?
Reply: 24 days

Task item: What about CO/N=C(\N)c1ccc(-c2cnc(-c3ccc(/C(N)=N\OC)cn3)s2)cc1.Cl.Cl ?
Reply: 35 days

Task item: What about CO/N=C(\N)c1ccc(-c2cnc(-c3ccc(/C(N)=N\OC)cn3)s2)nc1.Cl.Cl ?
Reply: 9 days

Task item: What about Cl.Cl.N/C(=N\O)c1ccc(-c2ncc(-c3ccc(/C(N)=N\O)nc3)s2)cc1 ?
Reply: 36.8 days

Task item: What about Cl.Cl.N/C(=N\O)c1ccc(-c2cnc(-c3ccc(/C(N)=N\O)nc3)s2)cn1 ?
Reply: 24 days

Task item: What about CONC(=N)c1ccc(-c2ccc(-c3ccc(C(=N)NOC)cc3)o2)cc1 [PAFURAMIDINE] ?
Reply: >60 days

Task item: What about Cl.Cl.N/C(=N/O)c1ccc(-c2cnc(-c3ccc(/C(N)=N\O)cc3)s2)cc1 ?
Reply: 35 days

Task item: What about Cl.Cl.N/C(=N\O)c1ccc(-c2cnc(-c3ccc(/C(N)=N\O)cn3)s2)nc1 ?
Reply: 9 days

Task item: What about Cl.Cl.N/C(=N\O)c1ccc(-c2cnc(-c3ccc(/C(N)=N/O)nc3)s2)cc1 ?
Reply: 37.5 days

Task item: What about CO/N=C(\N)c1ccc(-c2cnc(-c3ccc(/C(N)=N/OC)nc3)s2)cc1.Cl ?
Reply: 42.8 days

Task item: What about CO/N=C(\N)c1ccc(-c2ccc(-c3ccc(/C(N)=N/OC)cn3)o2)cc1 ?
Reply: >60 days

Task item: What about CO/N=C(\N)c1ccc(-c2cnc(-c3ccc(/C(N)=N\OC)nc3)s2)cn1.Cl.Cl ?
Reply: 9 days
